tested on: Influenza A virus; assay: Antiviral activity against Influenza A virus A/PR/8/34(H1N1) infected in MDCK cells assessed as inhibition of viral replication by plaque reduction assay; assay type: functional, organism-based; conditions: A/Puerto Rico/8/1934(H1N1)
pEC50: −log10 of the molar value.
Observed property: pEC50

### Prompt Give recorded pEC50. COc1ccc(C(=O)Nc2nc3n(n2)C(c2ccccc2)C=C(C)N3)cc1 (stereo unspecified)
### Response < 4.00

====

test: Cytotoxicity against MDCK cells assessed as reduction in cell viability incubated for 48 hrs by MTT assay; format: cell-based, Canis lupus familiaris; settings: dog
Answer each item with its documented CC50 at 48 h.

### Prompt Give recorded CC50 at 48 h. "Cc1cc(-c2ccccc2)nc2nc(NC(=O)c3ccc([N+](=O)[O-])cc3)nn12"
### Response > 250 µM

### Prompt Give recorded CC50 at 48 h. "O=C(Nc1nc2nc(-c3ccccc3)ccn2n1)c1ccccc1"
### Response > 250 µM

### Prompt Give recorded CC50 at 48 h. "Cc1cc(-c2ccccc2)nc2nc(NC(=O)c3ccccc3F)nn12"
### Response > 250 µM

### Prompt Give recorded CC50 at 48 h. "O=C(Nc1nc2ncc(-c3ccccc3)cn2n1)c1ccccc1"
### Response > 250 µM

### Prompt Give recorded CC50 at 48 h. "Cc1cc(-c2ccccc2)nc2nc(C(=O)Nc3ccccc3F)nn12"
### Response > 250 µM

### Prompt Give recorded CC50 at 48 h. "O=C(Nc1nc2nccc(-c3ccccc3)n2n1)c1ccccc1"
### Response > 250 µM

### Prompt Give recorded CC50 at 48 h. "NC(=O)c1ccccc1NC(=O)c1nc2nccc(-c3ccccc3)n2n1"
### Response > 250 µM

### Prompt Give recorded CC50 at 48 h. "COC(=O)c1ccccc1NC(=O)c1nc2nc(C)cc(-c3ccccc3)n2n1"
### Response > 250 µM

### Prompt Give recorded CC50 at 48 h. "Cc1cc(-c2ccccc2)nc2nc(C(=O)Nc3ccccc3C(=O)O)nn12"
### Response > 250 µM

### Prompt Give recorded CC50 at 48 h. "NC(=O)c1ccccc1NC(=O)c1nc2ncc(-c3ccccc3)cn2n1"
### Response > 250 µM

### Prompt Give recorded CC50 at 48 h. "Cc1cc(-c2ccccc2)n2nc(-c3nc4ccccc4c(=O)o3)nc2n1"
### Response > 250 µM

### Prompt Give recorded CC50 at 48 h. "COC(=O)c1ccccc1NC(=O)c1nc2nc(-c3ccccc3)cc(C)n2n1"
### Response > 250 µM

### Prompt Give recorded CC50 at 48 h. "NC(=O)c1ncn([C@@H]2O[C@H](CO)[C@@H](O)[C@H]2O)n1"
### Response > 250 µM

### Prompt Give recorded CC50 at 48 h. "NC(=O)c1c(NC(=O)c2nc3ncc(-c4ccccc4)cn3n2)sc2c1CCCCC2"
### Response 100 µM

### Prompt Give recorded CC50 at 48 h. "CCCOc1ccc(C(=O)Nc2nc3nc(-c4ccccc4)cc(C)n3n2)cc1"
### Response 247 µM

### Prompt Give recorded CC50 at 48 h. "Cc1cc(-c2ccccc2)n2nc(C(=O)Nc3ccccc3C(=O)O)nc2n1"
### Response > 250 µM

### Prompt Give recorded CC50 at 48 h. "Cc1cc(-c2ccccc2)nc2nc(NC(=O)c3ccc(N)cc3)nn12"
### Response > 250 µM

### Prompt Give recorded CC50 at 48 h. "Cc1cc(-c2ccccc2)nc2nc(NC(=O)c3ccc(O)c(O)c3)nn12"
### Response 112 µM

### Prompt Give recorded CC50 at 48 h. "O=C(Nc1nc2nc(-c3ccccc3)cc(O)n2n1)c1ccccc1"
### Response > 250 µM

### Prompt Give recorded CC50 at 48 h. "NC(=O)c1c(NC(=O)c2nc3nccc(-c4ccccc4)n3n2)sc2c1CCCCC2"
### Response > 200 µM

### Prompt Give recorded CC50 at 48 h. "Cc1cc(-c2ccccc2)nc2nc(-c3nc4ccccc4c(=O)o3)nn12"
### Response > 200 µM

### Prompt Give recorded CC50 at 48 h. "COc1ccc(C(=O)Nc2nc3nc(-c4ccccc4)cc(C)n3n2)cc1"
### Response > 250 µM

Provenance of the data: ChEMBL document CHEMBL4837208
